Tested On: PI3Kβ (Homo sapiens, UniProt P42338)
Construct: made in house
Sequence (P42338 whole entry): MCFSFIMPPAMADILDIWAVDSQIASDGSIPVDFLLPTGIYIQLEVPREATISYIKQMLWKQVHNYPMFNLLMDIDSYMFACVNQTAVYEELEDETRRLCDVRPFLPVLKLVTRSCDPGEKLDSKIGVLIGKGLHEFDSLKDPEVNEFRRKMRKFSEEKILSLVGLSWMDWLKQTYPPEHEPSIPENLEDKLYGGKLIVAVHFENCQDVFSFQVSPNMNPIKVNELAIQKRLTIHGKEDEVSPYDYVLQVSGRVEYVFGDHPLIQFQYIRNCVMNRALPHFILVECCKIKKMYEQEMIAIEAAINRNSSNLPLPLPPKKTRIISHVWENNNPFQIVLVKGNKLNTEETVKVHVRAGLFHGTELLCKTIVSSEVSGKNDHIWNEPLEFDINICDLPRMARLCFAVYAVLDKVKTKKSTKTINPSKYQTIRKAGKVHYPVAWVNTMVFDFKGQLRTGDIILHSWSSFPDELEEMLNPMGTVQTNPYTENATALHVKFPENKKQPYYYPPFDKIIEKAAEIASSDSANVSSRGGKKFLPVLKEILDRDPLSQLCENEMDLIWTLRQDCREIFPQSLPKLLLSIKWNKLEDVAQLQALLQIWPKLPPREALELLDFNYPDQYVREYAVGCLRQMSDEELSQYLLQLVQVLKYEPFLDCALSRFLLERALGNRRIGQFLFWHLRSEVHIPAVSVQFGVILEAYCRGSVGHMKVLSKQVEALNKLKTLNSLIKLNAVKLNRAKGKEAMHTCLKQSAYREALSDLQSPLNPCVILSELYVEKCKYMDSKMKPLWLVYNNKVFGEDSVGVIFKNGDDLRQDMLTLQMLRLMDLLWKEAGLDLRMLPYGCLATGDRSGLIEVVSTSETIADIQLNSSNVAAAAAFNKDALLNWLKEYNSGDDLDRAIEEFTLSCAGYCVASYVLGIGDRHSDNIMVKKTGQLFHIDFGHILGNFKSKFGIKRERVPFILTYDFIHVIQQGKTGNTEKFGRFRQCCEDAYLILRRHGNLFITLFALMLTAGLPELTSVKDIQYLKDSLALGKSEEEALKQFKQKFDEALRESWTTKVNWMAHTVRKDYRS
Sequence (P27986 whole entry partner): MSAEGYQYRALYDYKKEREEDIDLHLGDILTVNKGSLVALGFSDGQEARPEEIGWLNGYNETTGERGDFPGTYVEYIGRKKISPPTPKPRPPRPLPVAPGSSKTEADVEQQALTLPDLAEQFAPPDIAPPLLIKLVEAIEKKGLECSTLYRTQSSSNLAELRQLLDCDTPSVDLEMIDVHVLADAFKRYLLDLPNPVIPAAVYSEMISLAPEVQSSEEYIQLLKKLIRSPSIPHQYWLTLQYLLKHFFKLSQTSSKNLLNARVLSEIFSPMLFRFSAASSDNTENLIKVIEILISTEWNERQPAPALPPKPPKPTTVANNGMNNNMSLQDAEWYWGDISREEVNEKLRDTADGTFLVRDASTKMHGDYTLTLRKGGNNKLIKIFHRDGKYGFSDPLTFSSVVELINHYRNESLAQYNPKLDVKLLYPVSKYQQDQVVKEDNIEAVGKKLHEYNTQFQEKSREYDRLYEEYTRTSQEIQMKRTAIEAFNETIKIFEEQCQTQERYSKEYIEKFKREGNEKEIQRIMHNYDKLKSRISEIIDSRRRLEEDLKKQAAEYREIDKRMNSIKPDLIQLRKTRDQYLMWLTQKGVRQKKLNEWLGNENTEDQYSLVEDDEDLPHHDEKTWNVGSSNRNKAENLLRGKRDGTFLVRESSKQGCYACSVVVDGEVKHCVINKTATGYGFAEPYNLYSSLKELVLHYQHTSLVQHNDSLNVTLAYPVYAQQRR
Protocol Text: TR-FRET enzymatic activity assay, PI3Kβ
Type: biochemical
Condition Summary: Table 2; TR-FRET, 2x Km ATP, 30 minutes at 25° C.
Parameter: log10 of IC50 (log10 of the value in nM)
Remember, log10 of IC50, in nM.

[[record]]
smi = "CC[C@H](Nc1ncnc2cccnc12)c1nc2c(Cl)ccc(Cl)c2c(=O)n1-c1cc[nH]n1"
tested_on = "PI3Kβ (Homo sapiens, UniProt P42338)"
reading = 1.92

[[record]]
smi = "CC[C@H](Nc1nc(N)nc(N)c1Cl)c1nc2cccc(Cl)c2c(=O)n1-c1cc[nH]n1"
tested_on = "PI3Kβ (Homo sapiens, UniProt P42338)"
reading = 1.26

[[record]]
smi = "CC[C@H](Nc1nc(N)nc(N)c1Cl)c1nc2c(C#N)cccc2c(=O)n1-c1cn[nH]c1"
tested_on = "PI3Kβ (Homo sapiens, UniProt P42338)"
reading = 3.23

[[record]]
smi = "CC[C@H](Nc1nc(Cl)nc2[nH]ncc12)c1nc2c(Cl)ccc(Cl)c2c(=O)n1-c1cc[nH]n1"
tested_on = "PI3Kβ (Homo sapiens, UniProt P42338)"
reading = 3.67

[[record]]
smi = "CCC[C@H](Nc1nc(N)nc(N)c1Cl)c1nc2cccc(Cl)c2c(=O)n1-c1cc[nH]n1"
tested_on = "PI3Kβ (Homo sapiens, UniProt P42338)"
reading = 1.15

[[record]]
smi = "O=c1c2c(Cl)ccc(Cl)c2nc([C@@H](Nc2ncnc3scnc23)C2CC2)n1-c1cc[nH]n1"
tested_on = "PI3Kβ (Homo sapiens, UniProt P42338)"
reading = 0.00

[[record]]
smi = "CC[C@H](Nc1nc(N)nc(N)c1Cl)c1nc2c(C#N)cccc2c(=O)n1-c1cc[nH]n1"
tested_on = "PI3Kβ (Homo sapiens, UniProt P42338)"
reading = 2.28

[[record]]
smi = "CC[C@H](Nc1ncnc2scnc12)c1nc2cccc(C#N)c2c(=O)n1-c1cn[nH]c1"
tested_on = "PI3Kβ (Homo sapiens, UniProt P42338)"
reading = 2.79


For reference, reported log10 of IC50 for CC[C@H](Nc1ncnc2scnc12)c1nc2c(Cl)ccc(Cl)c2c(=O)n1-c1cn[nH]c1 stands at 2.23

For reference, reported log10 of IC50 for C[C@H](Nc1ncnc2scnc12)c1nc2c(Cl)ccc(Cl)c2c(=O)n1-c1n[nH]cc1Br stands at 2.23

For reference, reported log10 of IC50 for CC[C@H](Nc1nc(N)nc(N)c1Cl)c1nc2c(F)ccc(Cl)c2c(=O)n1-c1cc[nH]n1 stands at 1.64

For reference, reported log10 of IC50 for O=c1c2c(Cl)cccc2nc([C@H](COCc2ccccc2)Nc2ncnc3scnc23)n1-c1cc[nH]n1 stands at 0.95

For reference, reported log10 of IC50 for CC[C@H](Nc1nc(N)nc(N)c1C#N)c1nc2c(C)cccc2c(=O)n1-c1cc[nH]n1 stands at 0.85

For reference, reported log10 of IC50 for Nc1nc(N)c(Cl)c(N[C@H](c2nc3c(Cl)cccc3c(=O)n2-c2cc[nH]n2)C2CC2)n1 stands at 2.15
